Listed here are molecules together with their documented MRT last.
Assay type: in vivo
Assay Context: rat, plasma, po, 10.39 g/kg/day

{"columns": ["Molecule", "MRT last (h)"],
 "data": [
  ["COc1cc2c(cc1OC)[C@@H]1Cc3ccc(OC)c(OC)c3CN1CC2 [tetrahydropalmatine]", 2.91],
  ["C[n+]1cccc(C(=O)[O-])c1 [trigonelline]", 4.18],
  ["O=c1c(-c2ccc(O)cc2)coc2c([C@@H]3O[C@H](CO)[C@@H](O)[C@H](O)[C@H]3O)c(O)ccc12 [puerarin]", 4.19],
  ["COc1ccc2cc3[n+](cc2c1OC)CCc1cc2c(cc1-3)OCO2 [berberine]", 4.26],
  ["O=C1C[C@@H](c2ccc(O[C@@H]3O[C@H](CO)[C@@H](O)[C@H](O)[C@H]3O)cc2)Oc2cc(O)ccc21 [liquiritin]", 6.75],
  ["O=C(O)/C=C/c1ccccc1 [cinnamic acid]", 2.64],
  ["COc1ccc(-c2cc(=O)c3c(OC)c(OC)c(OC)c(OC)c3o2)cc1OC [nobiletin]", 3.24]
]}

###

Format: in vivo
Assay Context: rat, plasma, po, 10.39 g/kg/day
Reported AUC(0-t) values for the following compounds.
Measured Property: AUC(0-t) (ng·h/mL)

{"columns": ["Compound", "Measured Property", "Recorded Value"],
 "data": [
  ["C[n+]1cccc(C(=O)[O-])c1", "AUC(0-t)", 3860],
  ["COc1cc2c(cc1OC)[C@@H]1Cc3ccc(OC)c(OC)c3CN1CC2 [tetrahydropalmatine]", "AUC(0-t)", 849],
  ["O=C1C[C@@H](c2ccc(O[C@@H]3O[C@H](CO)[C@@H](O)[C@H](O)[C@H]3O)cc2)Oc2cc(O)ccc21", "AUC(0-t)", 708],
  ["COc1ccc2cc3[n+](cc2c1OC)CCc1cc2c(cc1-3)OCO2", "AUC(0-t)", 91.1]
]}

###

Format: in vivo
Assay Context: rat, plasma, po, 10.39 g/kg/day

{"columns": ["Smiles Repr", "Value Unit", "AUC(0-t)"],
 "data": [
  ["O=c1c(-c2ccc(O)cc2)coc2c([C@@H]3O[C@H](CO)[C@@H](O)[C@H](O)[C@H]3O)c(O)ccc12", "ng·h/mL", 603],
  ["COc1ccc(-c2cc(=O)c3c(OC)c(OC)c(OC)c(OC)c3o2)cc1OC", "ng·h/mL", 9890],
  ["O=C(O)/C=C/c1ccccc1", "ng·h/mL", 2010]
]}
